assayExplanation: A qHTS for Small Molecule Inhibitors of Shiga Toxin (Confirmatory); note: nearly all actives have a fitted effect of over 75% in size
assayConditions: Cell-based Shiga toxin protection reporter assay; series mostly up to 38.3 µM
Results filed as inconclusive are left out. Active and inactive are the calls of the source. Calls come from the whole dose curve.
Possible outcomes: y for active, n for inactive

INSERT INTO assay_data (smilesnotation, assignedclass) VALUES
  ('NS(=O)(=O)c1cc(C(=O)NCC2CCCCC2)ccc1Cl', 'n'),
  ('Cc1cc(C)nc(Sc2ccc3nnnn3n2)n1', 'y'),
  ('COc1ccc(N(CCC#N)S(=O)(=O)c2ccc(Cl)cc2)cc1', 'n'),
  ('CCN1CCN(Cc2nnc(-c3ccc(C)cc3)o2)CC1', 'n'),
  ('O=C(NNC(=O)c1nc(Cl)ccc1Cl)c1ccc(F)cc1', 'n'),
  ('COC(=O)c1ccc(-c2ncc(-c3cccc4ccccc34)o2)cc1', 'y'),
  ('COc1cc2c(c(OC)c1OC)-c1c(cc(OC)c(OC)c1OC)C[C@](C)(O)[C@@H](C)C2', 'n');

====

assayExplanation: A qHTS for Small Molecule Inhibitors of Shiga Toxin (Confirmatory); note: nearly all actives have a fitted effect of over 75% in size; note: potency is the fitted concentration of half-maximal effect
assayConditions: Cell-based Shiga toxin protection reporter assay; series mostly up to 38.3 µM
Records with an inconclusive call do not appear. Active and inactive are the calls of the source. The call rests on the fitted dose curve.
metricName: Potency

INSERT INTO measurements (compound, metricname, result) VALUES
  ('Cc1cc(C)nc(SCC(=O)Nc2cc(C)on2)n1', 'Potency', 'inactive'),
  ('Cc1noc(/C=C/c2ccco2)c1S(=O)(=O)N1CCC(C(=O)N(C)Cc2ccccc2)CC1', 'Potency', '22.5 µM (active)'),
  ('CSc1nc(C)c2cc(C)oc2n1', 'Potency', 'inactive'),
  ('CCOC(=O)c1cnc2c(-c3cccc(Br)c3)cnn2c1C', 'Potency', '3.56 µM (active)'),
  ('Cc1nc(SCC(=O)Nc2cc(C)on2)c2c3c(sc2n1)CCCC3', 'Potency', 'inactive'),
  ('Cc1cc(N/C=C\c2nnnn2-c2ccccc2)no1', 'Potency', '22.5 µM (active)'),
  ('COc1ccc2nc3cc(Cl)ccc3c(NCCCN3CCN(CCCNc4c5ccc(Cl)cc5nc5ccc(OC)cc45)CC3)c2c1', 'Potency', 'inactive'),
  ('CSc1nc2ccc(N3C(=O)C4CCCCC4C3=O)cc2s1 (stereo unspecified)', 'Potency', 'inactive'),
  ('C=C1C(O)C2OC3(CCC(/C=C/C(C)C4CC(C)=CC5(OC(CC(C)(O)C(=O)O)CCC5O)O4)O3)CCC2OC1C(O)CC(C)C1OC2(CCCCO2)CCC1C (stereo unspecified)', 'Potency', '20 µM (active)'),
  ('Cc1cc(NC(=O)/C=C/c2ccc(Br)cc2)no1', 'Potency', '8.95 µM (active)'),
  ('Cc1cccc(Cn2cc(SCC(=O)Nc3nccs3)c3ccccc32)c1', 'Potency', '8.95 µM (active)');
